- TARGET_OR_SYSTEM: HLA-B*08:03
- ASSAY_REMARKS: IEDB peptide-MHC binding, purified MHC/direct/fluorescence; filed as Kd, often an IC50 or EC50 that approximates it; bounds were set here for any values at or beyond the usual limits of such assays
- MEASUREMENT_CONTEXT: source organism: Rickettsia typhi str. Wilmington
pKd: −log10 of the molar value.
ENDPOINT: pKd

Query :: Item `RRNRKALWL` has what recorded pKd?
Result :: ≤ 4.70

---

- TARGET_OR_SYSTEM: HLA-A*01:01
- ASSAY_REMARKS: IEDB peptide-MHC binding, purified MHC/competitive/fluorescence; filed as Kd, often an IC50 or EC50 that approximates it; bounds were set here for any values at or beyond the usual limits of such assays
- MEASUREMENT_CONTEXT: source organism: Escherichia coli str. K-12 substr. DH10B
ENDPOINT: Kd (nM)
One number for each entry, in nM.

Query :: Any idea what Kd was measured for `QVIFKCVPK` ?
Result :: 1040

---

- TARGET_OR_SYSTEM: HLA-A*24:03
- ASSAY_REMARKS: IEDB peptide-MHC binding, purified MHC/competitive/fluorescence; filed as Kd, often an IC50 or EC50 that approximates it; bounds were set here for any values at or beyond the usual limits of such assays
- MEASUREMENT_CONTEXT: source organism: Escherichia coli 536
ENDPOINT: Kd

Query :: For the sequence `LYIEFTDNM` , what Kd is on record?
Result :: ≤ 1 nM

---

- TARGET_OR_SYSTEM: HLA-B*54:01
- ASSAY_REMARKS: IEDB peptide-MHC binding, purified MHC/competitive/radioactivity; filed as Kd, often an IC50 or EC50 that approximates it; bounds were set here for any values at or beyond the usual limits of such assays
- MEASUREMENT_CONTEXT: source organism: Mammarenavirus machupoense
Give measured Kd for each item. Keep answers brief.
One number for each entry, in µM.

| ITEM_SEQUENCE | TARGET_OR_SYSTEM | MEASURED_NUMBER |
| --- | --- | --- |
| LPTSITVPV | HLA-B*54:01 | 0.00401 |

Now consider the entry below.
Query :: Can you share its Kd? I mean this sequence: `MLNNSFYYM`
Result :: 7.52

---

- TARGET_OR_SYSTEM: HLA-A*69:01
- ASSAY_REMARKS: IEDB peptide-MHC binding, purified MHC/competitive/fluorescence; filed as Kd, often an IC50 or EC50 that approximates it; bounds were set here for any values at or beyond the usual limits of such assays
- MEASUREMENT_CONTEXT: source organism: Orthohantavirus tulaense
pKd: −log10 of the molar value.
ENDPOINT: pKd

Query :: What pKd value was documented for this sequence, `MSRKLHRYI` ?
Result :: ≤ 4.70

---

- TARGET_OR_SYSTEM: HLA-B*08:01
- ASSAY_REMARKS: IEDB peptide-MHC binding, purified MHC/direct/fluorescence; filed as Kd, often an IC50 or EC50 that approximates it; bounds were set here for any values at or beyond the usual limits of such assays
- MEASUREMENT_CONTEXT: source organism: Variola virus
ENDPOINT: Kd

| ITEM_SEQUENCE | TARGET_OR_SYSTEM | Kd |
| --- | --- | --- |
| IHIPGDTLF | HLA-B*08:01 | ≥ 20 µM |

Now, please, on to the next sequence.
Query :: Could you tell me which Kd is on file for `SLFTEQAFY` ?
Result :: ≥ 20 µM

---

- TARGET_OR_SYSTEM: HLA-B*07:02
- ASSAY_REMARKS: IEDB peptide-MHC binding, purified MHC/competitive/fluorescence; filed as Kd, often an IC50 or EC50 that approximates it; bounds were set here for any values at or beyond the usual limits of such assays
- MEASUREMENT_CONTEXT: source organism: Francisella tularensis subsp. tularensis FSC198
pKd: −log10 of the molar value.
ENDPOINT: pKd

Query :: # query: pKd of entry `EFKRRLKDL`
Result :: ≤ 4.70

---

For each of the sequences below, state its pKd.
- TARGET_OR_SYSTEM: HLA-B*54:01
- ASSAY_REMARKS: IEDB peptide-MHC binding, purified MHC/competitive/radioactivity; filed as Kd, often an IC50 or EC50 that approximates it; bounds were set here for any values at or beyond the usual limits of such assays
- MEASUREMENT_CONTEXT: source organism: SARS coronavirus Tor2
Give bare numbers, as −log10 of the molar value.

| ITEM_SEQUENCE | TARGET_OR_SYSTEM | pKd |
| --- | --- | --- |
| FPLNSKVKVI | HLA-B*54:01 | 6.03 |
| FPPTSFGPLV | HLA-B*54:01 | 5.90 |
| KPLLAPHHVV | HLA-B*54:01 | 5.14 |

For the next question, use this sequence.
Query :: Request the reported pKd associated with `FPNITNLCPF`
Result :: 6.35

---

- TARGET_OR_SYSTEM: HLA-A*01:01
- ASSAY_REMARKS: IEDB peptide-MHC binding, purified MHC/direct/fluorescence; filed as Kd, often an IC50 or EC50 that approximates it; bounds were set here for any values at or beyond the usual limits of such assays
- MEASUREMENT_CONTEXT: source organism: Marburg virus - Musoke, Kenya, 1980
pKd: −log10 of the molar value.
ENDPOINT: pKd

Query :: Can you look up pKd on HLA-A*01:01 for `GEGSGARLL` ?
Result :: ≤ 4.70

---

- TARGET_OR_SYSTEM: HLA-A*31:01
- ASSAY_REMARKS: IEDB peptide-MHC binding, purified MHC/direct/fluorescence; filed as Kd, often an IC50 or EC50 that approximates it; bounds were set here for any values at or beyond the usual limits of such assays
- MEASUREMENT_CONTEXT: source organism: Influenza A virus (A/equine/New York/1/1999(H3N8))
pKd: −log10 of the molar value.
ENDPOINT: pKd

Query :: Query (sequence): `VAGGTSSVY` ; field requested: pKd
Result :: ≤ 4.70

---

- TARGET_OR_SYSTEM: HLA-A*32:01
- ASSAY_REMARKS: IEDB peptide-MHC binding, purified MHC/competitive/radioactivity; filed as Kd, often an IC50 or EC50 that approximates it; bounds were set here for any values at or beyond the usual limits of such assays
- MEASUREMENT_CONTEXT: source organism: Mammarenavirus juninense
pKd: −log10 of the molar value.
ENDPOINT: pKd

Report pKd for each item below.
1. GEKSRCYSIY
2. EALSGFLQY
3. VAHSSLYGRY

Result ::
≤ 4.16
≤ 4.11
≤ 4.16

---

- TARGET_OR_SYSTEM: HLA-B*07:02
- ASSAY_REMARKS: IEDB peptide-MHC binding, purified MHC/direct/fluorescence; filed as Kd, often an IC50 or EC50 that approximates it; bounds were set here for any values at or beyond the usual limits of such assays
- MEASUREMENT_CONTEXT: source organism: Human herpesvirus 4 strain B95-8
ENDPOINT: Kd (nM)
Numbers only, in nM.

Query :: May I ask what Kd has been recorded for `QPRAPIRPI` ?
Result :: 161

---

Provide the recorded Kd for the entries that follow.
- TARGET_OR_SYSTEM: HLA-A*33:01
- ASSAY_REMARKS: IEDB peptide-MHC binding, purified MHC/competitive/radioactivity; filed as Kd, often an IC50 or EC50 that approximates it; bounds were set here for any values at or beyond the usual limits of such assays
- MEASUREMENT_CONTEXT: source organism: Dengue virus 3 Martinique/1243/1999
Numbers only, in nM.

| ITEM_SEQUENCE | OUTPUT_UNIT | Kd |
| --- | --- | --- |
| DFWKLVDRER | nM | 1.51 |

Turning now to a further sequence:
Query :: Kd for `EWLWRTLGR` ?
Result :: 8.26

---

- TARGET_OR_SYSTEM: HLA-A*01:01
- ASSAY_REMARKS: IEDB peptide-MHC binding, purified MHC/direct/fluorescence; filed as Kd, often an IC50 or EC50 that approximates it; bounds were set here for any values at or beyond the usual limits of such assays
- MEASUREMENT_CONTEXT: source organism: Yersinia pestis
ENDPOINT: pKd
Answers are plain numbers, as −log10 of the molar value.

Query :: // returns reported pKd for input `LSEEIGLDL`
Result :: 5.20

---

- TARGET_OR_SYSTEM: HLA-A*11:01
- ASSAY_REMARKS: IEDB peptide-MHC binding, purified MHC/direct/fluorescence; filed as Kd, often an IC50 or EC50 that approximates it; bounds were set here for any values at or beyond the usual limits of such assays
- MEASUREMENT_CONTEXT: source organism: Mycobacterium tuberculosis
pKd: −log10 of the molar value.
Exercise: state measured pKd for each of the sequences provided.

| ITEM_SEQUENCE | pKd |
| --- | --- |
| FHVNPAFVL | ≤ 4.70 |

Proceed to the following item.
Query :: # get_value(readout='pKd', item= `RPRCAYLPF` )
Result :: ≤ 4.70
